Listed molecules paired with reported IC50
biological target: PBP3 from Pseudomonas aeruginosa (PAO1) (Pseudomonas aeruginosa, UniProt G3XD46); assay: Bocillin-FL fluorescence polarization competition binding, P. aeruginosa PBP3; conditions: Binding affinity to P. aeruginosa PBP3; fluorescence polarization competition binding assay using Bocillin-FL; read-out: P. aeruginosa PBP3 Potency
Sequence (G3XD46 whole entry): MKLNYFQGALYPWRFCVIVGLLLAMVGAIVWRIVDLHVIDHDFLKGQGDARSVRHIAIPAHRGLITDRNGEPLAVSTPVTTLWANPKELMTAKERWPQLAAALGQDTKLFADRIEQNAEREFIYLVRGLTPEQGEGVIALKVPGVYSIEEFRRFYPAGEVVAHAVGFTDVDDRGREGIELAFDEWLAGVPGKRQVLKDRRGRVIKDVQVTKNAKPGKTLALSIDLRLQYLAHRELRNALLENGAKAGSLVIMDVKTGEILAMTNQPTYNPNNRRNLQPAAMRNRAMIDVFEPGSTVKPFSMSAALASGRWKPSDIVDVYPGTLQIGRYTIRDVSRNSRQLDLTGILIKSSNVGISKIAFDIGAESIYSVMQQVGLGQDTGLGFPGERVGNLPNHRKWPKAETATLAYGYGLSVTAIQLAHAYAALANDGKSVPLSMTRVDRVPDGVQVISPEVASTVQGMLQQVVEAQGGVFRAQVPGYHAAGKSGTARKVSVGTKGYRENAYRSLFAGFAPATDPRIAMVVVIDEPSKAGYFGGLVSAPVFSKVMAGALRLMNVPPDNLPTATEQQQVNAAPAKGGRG
experimental_endpoint: IC50

INSERT INTO assay_data (molecule, data_value) VALUES
  ('O=C(NCCCN1CCN(C(=O)NC(C(=O)N[C@H]2Cc3ccc(F)c(C(=O)O)c3OB2O)c2cc(F)c(O)c(O)c2Cl)C(=O)C1=O)c1ccc(F)c(O)c1 (stereo partly drawn)', '< 10 µM'),
  ('CCC(=O)NC(C(=O)N[C@H]1Cc2cccc(C(=O)O)c2OB1O)c1ccc(P(=O)(O)O)cc1 (stereo partly drawn)', '10 to 50 µM'),
  ('CC(C)S(=O)(=O)NC(C(=O)N[C@H]1Cc2cccc(C(=O)O)c2OB1O)c1ccc(P(=O)(O)O)cc1 (stereo partly drawn)', '50 to 250 µM');
